# EXPERIMENT NOTES: Cytotoxicity against human Raji cells assessed as cell viability at 10 molar ratio after 48 hrs by trypan blue staining method
# Assay type: cell-based
# RUN PARAMETERS: read-out: Activity
Recorded measurements of viability at 48 h, 10 molar ratio, one per entry

Which viability at 48 h, 10 molar ratio is reported for this compound? C=C(C)[C@@H]1CC[C@]2(C(=O)O)CC[C@]3(C)[C@H](CC[C@@H]4[C@@]5(C)CC(=O)C(C)(C)[C@@H]5CC[C@]43C)[C@@H]12 > 80%

Entry under review: C=C(C)[C@@H]1CC[C@]2(C(=O)O)CC[C@]3(C)[C@H](CC[C@@H]4[C@@]5(C)CC[C@H](OC(=O)CCC/C=C\C/C=C\C/C=C\C/C=C\CCCCC)C(C)(C)[C@@H]5CC[C@]43C)[C@@H]12 . Reported viability at 48 h, 10 molar ratio? > 80%

Report viability at 48 h, 10 molar ratio for C=C(C)[C@@H]1CC[C@]2(C(=O)O)CC[C@]3(C)[C@H](CC[C@@H]4[C@@]5(C)CC[C@H](O)C(C)(C)[C@@H]5CC[C@]43C)[C@@H]12 [BETULINIC ACID] please. > 80%

====

# EXPERIMENT NOTES: Cytotoxicity against human Raji cells assessed as cell viability at 1000 molar ratio after 48 hrs by trypan blue staining method
# Type: cell-based
# RUN PARAMETERS: read-out: Activity
MEASURED PARAMETER: viability at 48 h, 1000 molar ratio (%)
Report as a plain number; the unit % is understood.

What value of viability at 48 h, 1000 molar ratio has been reported for the following compound? C=C(C)[C@@H]1CC[C@]2(C(=O)O)CC[C@]3(C)[C@H](CC[C@@H]4[C@@]5(C)C[C@H](O)C(C)(C)[C@@H]5CC[C@]43C)[C@@H]12 60

---
Give the measured viability at 48 h, 1000 molar ratio of C=C(C)[C@@H]1CC[C@]2(C(=O)O)CC[C@]3(C)[C@H](CC[C@@H]4[C@@]5(C)CC[C@H](OC(=O)CCCCCCC/C=C\C/C=C\C/C=C\CC)C(C)(C)[C@@H]5CC[C@]43C)[C@@H]12 . 60

Using the record for C=C(C)[C@@H]1CC[C@]2(C(=O)O)CC[C@]3(C)[C@H](CC[C@@H]4[C@@]5(C)CC[C@H](OC(=O)C[C@@H](C)C(=O)O)C(C)(C)[C@@H]5CC[C@]43C)[C@@H]12 , report its viability at 48 h, 1000 molar ratio. 60

# lookup: viability at 48 h, 1000 molar ratio of C=C(C)[C@@H]1CC[C@]2(C(=O)O)CC[C@]3(C)[C@H](CC[C@@H]4[C@@]5(C)CC[C@H](OC(=O)CCCCCCC/C=C\C/C=C\CCCCC)C(C)(C)[C@@H]5CC[C@]43C)[C@@H]12 60

// query viability at 48 h, 1000 molar ratio value for entry C=C(C)[C@@H]1CC[C@]2(C(=O)O)CC[C@]3(C)[C@H](CC[C@@H]4[C@@]5(C)CC[C@H](OC(=O)CCC/C=C\C/C=C\C/C=C\C/C=C\CCCCC)C(C)(C)[C@@H]5CC[C@]43C)[C@@H]12 60

Look up viability at 48 h, 1000 molar ratio: C=C(C)[C@@H]1CC[C@]2(C(=O)O)CC[C@]3(C)[C@H](CC[C@@H]4[C@@]5(C)CC[C@H](OC(=O)CC(C)(C)C(=O)O)C(C)(C)[C@@H]5CC[C@]43C)[C@@H]12 60

Using the record for C=C(C)[C@@H]1CC[C@]2(C(=O)O)CC[C@]3(C)[C@H](CC[C@@H]4[C@@]5(C)CC[C@H](OC(=O)CCC/C=C\C/C=C\C/C=C\C/C=C\C/C=C\CC)C(C)(C)[C@@H]5CC[C@]43C)[C@@H]12 , report its viability at 48 h, 1000 molar ratio. 60

Given the compound C=C(C)[C@@H]1CC[C@]2(C(=O)O)CC[C@]3(C)[C@H](CC[C@@H]4[C@@]5(C)CC(=O)C(C)(C)[C@@H]5CC[C@]43C)[C@@H]12 , what is its reported viability at 48 h, 1000 molar ratio? 60

# lookup: viability at 48 h, 1000 molar ratio of C=C(C)[C@@H]1CC[C@]2(C(=O)O)CC[C@]3(C)[C@H](CC[C@@H]4[C@@]5(C)CC[C@H](OC(=O)CC/C=C\C/C=C\C/C=C\C/C=C\C/C=C\C/C=C\CC)C(C)(C)[C@@H]5CC[C@]43C)[C@@H]12 60
